- Measured target: T1, FcγRIIA (human, UniProt P12318 34-217, limits assumed)
- T1 construct: also called CD32; not shown: His-tag fused to the C-terminus
- T1 sequence (looked up): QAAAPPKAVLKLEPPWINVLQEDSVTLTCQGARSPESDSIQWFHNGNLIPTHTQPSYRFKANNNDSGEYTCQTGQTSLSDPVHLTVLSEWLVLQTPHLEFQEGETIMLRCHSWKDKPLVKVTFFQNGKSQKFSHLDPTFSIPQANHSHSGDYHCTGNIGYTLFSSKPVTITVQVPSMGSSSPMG
- Procedure text: SPR, Fc captured on Protein A, receptor injected; steady-state analysis
Entries and their Kd

Binder	Kd / µM
IgG1 Fc variant Fc-226^hg/290^hg (other, N-linked glycans at Asn297 and at engineered Asn226 and Asn290 (IgG1 heavy chain positions), Both CPP (226-228) and KPR (290-292) replaced by NST) EPKSCDKTHTNSTCPAPELLGGPSVFLFPPKPKDTLMISRTPEVTCVVVDVSHEDPEVKFNWYVDGVEVHNAKTNSTEEQYNSTYRVVSVLTVLHQDWLNGKEYKCKVSNKALPAPIEKTISKAKGQPREPQVYTLPPSREEMTKNQVSLTCLVKGFYPSDIAVEWESNGQPENNYKTTPPVLDSDGSFFLYSKLTVDKSRWQQGNVFSCSVMHEALHNHYTQKSLSLSPGK	9.1
IgG1 Fc variant Fc-226^hg/290^hg/S298A/E333A/K334A (other, N-linked glycans at Asn297 and at engineered Asn226 and Asn290 (IgG1 heavy chain positions)) EPKSCDKTHTNSTCPAPELLGGPSVFLFPPKPKDTLMISRTPEVTCVVVDVSHEDPEVKFNWYVDGVEVHNAKTNSTEEQYNATYRVVSVLTVLHQDWLNGKEYKCKVSNKALPAPIAATISKAKGQPREPQVYTLPPSREEMTKNQVSLTCLVKGFYPSDIAVEWESNGQPENNYKTTPPVLDSDGSFFLYSKLTVDKSRWQQGNVFSCSVMHEALHNHYTQKSLSLSPGK	12.8
Fc-226^hg/290^hg/E333A/K334A (other, N-linked glycans at Asn297 and at engineered Asn226 and Asn290 (IgG1 heavy chain positions)) EPKSCDKTHTNSTCPAPELLGGPSVFLFPPKPKDTLMISRTPEVTCVVVDVSHEDPEVKFNWYVDGVEVHNAKTNSTEEQYNSTYRVVSVLTVLHQDWLNGKEYKCKVSNKALPAPIAATISKAKGQPREPQVYTLPPSREEMTKNQVSLTCLVKGFYPSDIAVEWESNGQPENNYKTTPPVLDSDGSFFLYSKLTVDKSRWQQGNVFSCSVMHEALHNHYTQKSLSLSPGK	13.4
IgG1 Fc variant Fc-226^hg/290^hg/S298A (other, N-linked glycans at Asn297 and at engineered Asn226 and Asn290 (IgG1 heavy chain positions)) EPKSCDKTHTNSTCPAPELLGGPSVFLFPPKPKDTLMISRTPEVTCVVVDVSHEDPEVKFNWYVDGVEVHNAKTNSTEEQYNATYRVVSVLTVLHQDWLNGKEYKCKVSNKALPAPIEKTISKAKGQPREPQVYTLPPSREEMTKNQVSLTCLVKGFYPSDIAVEWESNGQPENNYKTTPPVLDSDGSFFLYSKLTVDKSRWQQGNVFSCSVMHEALHNHYTQKSLSLSPGK	12.8

Where do these numbers come from? They come from patent US20160280766A1.
